Data credit: patent US5218096A

Assay: Digestion test in vitro, hydrolysis rate
Format: in vitro ADME
Conditions: small intestinal mucosa enzyme; in vitro, enzyme of small intestinal mucous membrane; read-out: hydrolysis rate (the ratio of reducing sugars against total sugars)
QUANTITY NAME: metabolised (%)
// units = %; emit number, no label

Req: Report metabolised for OC[C@H]1O[C@@H](O[C@H]2[C@H](O)[C@@H](O)[C@H](O[C@H]3O[C@H](CO)[C@@H](O)[C@H](O)[C@H]3O)O[C@@H]2CO)[C@H](O)[C@@H](O)[C@H]1O [lactoneotrehalose] please.
Resp: 60.2

---

Test: Digestion test in vitro, hydrolysis rate
Type: in vitro ADME
Conditions: salivary amylase, read-out: hydrolysis rate (the ratio of reducing sugars against total sugars)
QUANTITY NAME: metabolised (%)
Give the number; % is assumed, so skip it.

Req: What measured metabolised goes with OC[C@H]1O[C@@H](O[C@H]2[C@H](O)[C@@H](O)[C@H](O[C@H]3O[C@H](CO)[C@@H](O)[C@H](O)[C@H]3O)O[C@@H]2CO)[C@H](O)[C@@H](O)[C@H]1O ?
Resp: 0
